Entries and their measured Solubility (mg/mL) pH6.8 follow.
- test_summary: Solubility experiment
- Format: physicochemical
- measurement_conditions: buffer pH 6.8, room temperature

| compound | measurement_units | Solubility (mg/mL) pH6.8 |
| --- | --- | --- |
| Cc1cc(N2CCN(Cc3cc(F)c(C(=O)NS(=O)(=O)C4CC4)cc3Cl)CC2)ccc1Cl [crystal form D] | mg/mL | 0.016 |
| Cc1cc(N2CCN(Cc3cc(F)c(C(=O)NS(=O)(=O)C4CC4)cc3Cl)CC2)ccc1Cl [crystal form A] | mg/mL | 0.01 |
| Cc1cc(N2CCN(Cc3cc(F)c(C(=O)NS(=O)(=O)C4CC4)cc3Cl)CC2)ccc1Cl [crystal form E-1] | mg/mL | 0.035 |
| Cc1cc(N2CCN(Cc3cc(F)c(C(=O)NS(=O)(=O)C4CC4)cc3Cl)CC2)ccc1Cl [crystal form F] | mg/mL | 0.050 |
| Cc1cc(N2CCN(Cc3cc(F)c(C(=O)NS(=O)(=O)C4CC4)cc3Cl)CC2)ccc1Cl [crystal form E-3] | mg/mL | 0.096 |

* * *

- test_summary: Stability experiment (storage of crystal forms, HPLC)
- Assay type: physicochemical
- measurement_conditions: 60° C. 21 d
value_kind: Content (%)

| compound | value_kind | observed |
| --- | --- | --- |
| Cc1cc(N2CCN(Cc3cc(F)c(C(=O)NS(=O)(=O)C4CC4)cc3Cl)CC2)ccc1Cl [crystal form D] | Content (%) | 99.1% |
| Cc1cc(N2CCN(Cc3cc(F)c(C(=O)NS(=O)(=O)C4CC4)cc3Cl)CC2)ccc1Cl [crystal form F] | Content (%) | 101.0% |
| Cc1cc(N2CCN(Cc3cc(F)c(C(=O)NS(=O)(=O)C4CC4)cc3Cl)CC2)ccc1Cl [crystal form E-3] | Content (%) | 105.1% |
| Cc1cc(N2CCN(Cc3cc(F)c(C(=O)NS(=O)(=O)C4CC4)cc3Cl)CC2)ccc1Cl [crystal form A] | Content (%) | 97.6% |

* * *

- system_under_test: Nav1.8 (Homo sapiens, UniProt Q9Y5Y9)
- Sequence (Q9Y5Y9 whole entry): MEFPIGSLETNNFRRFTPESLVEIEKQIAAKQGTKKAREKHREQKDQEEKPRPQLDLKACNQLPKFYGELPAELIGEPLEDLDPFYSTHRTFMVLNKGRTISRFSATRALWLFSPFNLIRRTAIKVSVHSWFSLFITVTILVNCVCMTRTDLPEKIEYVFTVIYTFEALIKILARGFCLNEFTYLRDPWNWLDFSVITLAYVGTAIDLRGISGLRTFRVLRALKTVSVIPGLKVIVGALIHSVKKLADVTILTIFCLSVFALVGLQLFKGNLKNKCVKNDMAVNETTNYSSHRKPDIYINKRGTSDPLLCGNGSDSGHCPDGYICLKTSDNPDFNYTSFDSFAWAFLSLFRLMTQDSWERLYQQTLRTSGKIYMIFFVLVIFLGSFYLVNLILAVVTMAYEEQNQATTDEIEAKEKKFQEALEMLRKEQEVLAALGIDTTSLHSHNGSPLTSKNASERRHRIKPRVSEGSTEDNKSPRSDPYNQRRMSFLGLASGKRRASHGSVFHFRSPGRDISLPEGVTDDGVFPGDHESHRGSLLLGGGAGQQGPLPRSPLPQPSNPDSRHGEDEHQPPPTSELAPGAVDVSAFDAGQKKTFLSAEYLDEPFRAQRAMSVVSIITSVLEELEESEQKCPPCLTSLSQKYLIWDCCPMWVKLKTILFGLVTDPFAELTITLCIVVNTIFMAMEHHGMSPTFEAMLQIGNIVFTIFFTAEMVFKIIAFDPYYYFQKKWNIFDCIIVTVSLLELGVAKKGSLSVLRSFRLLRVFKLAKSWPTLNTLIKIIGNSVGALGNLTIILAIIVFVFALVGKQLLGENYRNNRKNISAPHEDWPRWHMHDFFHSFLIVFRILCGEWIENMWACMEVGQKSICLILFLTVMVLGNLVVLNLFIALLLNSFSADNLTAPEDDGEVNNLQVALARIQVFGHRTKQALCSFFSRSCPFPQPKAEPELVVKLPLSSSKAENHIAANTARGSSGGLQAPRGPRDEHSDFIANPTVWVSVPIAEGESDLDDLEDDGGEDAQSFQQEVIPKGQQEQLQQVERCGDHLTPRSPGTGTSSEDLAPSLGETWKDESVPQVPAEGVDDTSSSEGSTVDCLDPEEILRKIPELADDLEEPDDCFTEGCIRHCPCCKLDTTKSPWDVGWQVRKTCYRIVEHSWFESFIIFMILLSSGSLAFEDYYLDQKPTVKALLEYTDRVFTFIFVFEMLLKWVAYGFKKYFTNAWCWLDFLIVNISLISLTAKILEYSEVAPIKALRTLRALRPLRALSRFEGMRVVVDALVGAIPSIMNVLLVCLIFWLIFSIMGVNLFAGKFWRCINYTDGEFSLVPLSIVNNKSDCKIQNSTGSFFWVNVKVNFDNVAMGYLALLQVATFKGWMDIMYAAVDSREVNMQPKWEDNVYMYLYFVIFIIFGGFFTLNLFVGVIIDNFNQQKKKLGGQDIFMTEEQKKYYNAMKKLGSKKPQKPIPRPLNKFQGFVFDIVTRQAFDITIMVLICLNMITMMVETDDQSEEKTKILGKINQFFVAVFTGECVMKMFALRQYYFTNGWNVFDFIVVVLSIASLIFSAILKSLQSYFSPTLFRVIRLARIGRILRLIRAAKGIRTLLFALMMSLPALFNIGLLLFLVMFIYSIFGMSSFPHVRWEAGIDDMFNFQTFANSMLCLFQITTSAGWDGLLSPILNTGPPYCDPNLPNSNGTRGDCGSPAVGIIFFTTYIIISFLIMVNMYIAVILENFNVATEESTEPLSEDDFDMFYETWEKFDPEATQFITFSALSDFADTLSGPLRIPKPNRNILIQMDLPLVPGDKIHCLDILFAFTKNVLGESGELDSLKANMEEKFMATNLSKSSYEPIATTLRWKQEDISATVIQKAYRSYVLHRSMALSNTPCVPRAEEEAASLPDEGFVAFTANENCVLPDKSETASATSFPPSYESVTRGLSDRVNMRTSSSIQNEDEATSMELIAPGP
- test_summary: Selectivity for other ion channels: Nav1.8
- Assay type: cell-based

| compound | IC50 [nM] |
| --- | --- |
| Cc1cc(N2CCN(Cc3cc(F)c(C(=O)NS(=O)(=O)C4CC4)cc3Cl)CC2)ccc1Cl [the free base of formula X compound] | 18900 |

* * *

- test_summary: Stability experiment (storage of crystal forms, HPLC)
- Assay type: physicochemical
- measurement_conditions: 40° C. 75% RH 14 d
RRT (%) 1.00 reference

| compound | RRT (%) 1.00 |
| --- | --- |
| Cc1cc(N2CCN(Cc3cc(F)c(C(=O)NS(=O)(=O)C4CC4)cc3Cl)CC2)ccc1Cl [crystal form E-3] | 99.71 |
| Cc1cc(N2CCN(Cc3cc(F)c(C(=O)NS(=O)(=O)C4CC4)cc3Cl)CC2)ccc1Cl [crystal form A] | 99.83 |
| Cc1cc(N2CCN(Cc3cc(F)c(C(=O)NS(=O)(=O)C4CC4)cc3Cl)CC2)ccc1Cl [crystal form F] | 99.90 |
| Cc1cc(N2CCN(Cc3cc(F)c(C(=O)NS(=O)(=O)C4CC4)cc3Cl)CC2)ccc1Cl [crystal form D] | 99.90 |
